A collection of binders and their measured EC50
Target: T1, PCSK9 D374Y mutant protein inserted with biotin receiving peptide BP15 and His-tag: PCSK9-D374Y-BP15-His6 (human, UniProt Q8NBP7 153-692; A8T644 31-152, biotin on the BP15 biotin receiving peptide)
T1 construct: also called PCSK9-Y; mutant PCSK9
Assay: ELISA, biotin PCSK9-Y on streptavidin plate
I only need the number, in µg/mL, no unit after it.

h011-3118 (antibody, V domains shown) VH: QVQLVQSGAEVKKPGASVKVSCKASGYTFTGYTIHWVRQAPGQGLEWMGYINPSSTYTKFNQKFKDRVTMTRDTSISTAYMELSRLRSDDTAVYYCARERIYSNYWFFDVWGQGTTVTVSS VL: DIVMTQSPSSLSASVGDRVTITCKASQNVYWEVVWYQQKPGKSPKLLIYSASNRYTGVPSRFSGSGSGTDFTLTISSLQPEDFATYFCQQYSSYPYTFGGGTKVEIK    0.00851
h011-3095 (antibody, V domains shown) VH: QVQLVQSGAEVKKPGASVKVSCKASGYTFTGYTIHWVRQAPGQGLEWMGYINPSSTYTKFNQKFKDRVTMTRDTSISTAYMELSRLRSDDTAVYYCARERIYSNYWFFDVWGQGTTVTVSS VL: DIVMTQSPSSLSASVGDRVTITCKASQNVYTAVAWYQQKPGKSPKLLIYEASNRYTGVPSRFSGSGSGTDFTLTISSLQPEDFATYFCQQYSSYPYTFGGGTKVEIK    0.0132

Query string: Entry under review: h011-3192 (antibody, V domains shown) VH: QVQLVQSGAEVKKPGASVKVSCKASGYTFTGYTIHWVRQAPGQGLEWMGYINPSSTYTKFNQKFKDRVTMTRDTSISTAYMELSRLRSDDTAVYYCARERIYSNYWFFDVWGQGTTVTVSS VL: DIVMTQSPSSLSASVGDRVTITCKASQNVYTEVAWYQQKPGKSPKLLIYSASNRYTGVPSRFSGSGSGTDFTLTISSLQPEDFATYFCQQYSSYPYTFGGGTKVEIK . Reported EC50?
Result string: 0.127

Query string: Now this one: h011-3193 (antibody, V domains shown) VH: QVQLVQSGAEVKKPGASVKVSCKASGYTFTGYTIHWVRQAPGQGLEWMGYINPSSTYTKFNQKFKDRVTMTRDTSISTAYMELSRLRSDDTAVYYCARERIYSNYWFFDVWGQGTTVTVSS VL: DIVMTQSPSSLSASVGDRVTITCKASQNVYTAVDWYQQKPGKSPKLLIYSASNRYTGVPSRFSGSGSGTDFTLTISSLQPEDFATYFCQQYSSYPYTFGGGTKVEIK
Result string: 0.0221

Query string: Now this one: h011-3174 (antibody, V domains shown) VH: QVQLVQSGAEVKKPGASVKVSCKASGYTFTGYTIHWVRQAPGQGLEWMGYINPSSTYTKFNQKFKDRVTMTRDTSISTAYMELSRLRSDDTAVYYCARERIFSNYWFFDVWGQGTTVTVSS VL: DIVMTQSPSSLSASVGDRVTITCKASQNVYTAVAWYQQKPGKSPKLLIYQASNRYTGVPSRFSGSGSGTDFTLTISSLQPEDFATYFCQQYSSYPYTFGGGTKVEIK
Result string: 0.0112
